Values from patent US7163800B2

Give measured Max Rsp (change between fitted maximum and fitted minimum Fgrains) for each item. Keep answers brief.
Target desc: HA-tagged human β2-adrenergic receptor (β2AR) (Homo sapiens)
Assay method text: arrestin-GFP localization (Fgrains) assay in U20S-β2AR/ArrGFP cells, isoproterenol stimulated
Details: B2AR RT plate: room temperature, atmospheric CO2; 100 nM isoproterenol
Note: the reply should be a number with no unit written.

I'm curious: which Max Rsp (change between fitted maximum and fitted minimum Fgrains) was measured for C[n+]1cc2c3c(ccc2c2ccc4cc5c(cc4c21)OCO5)OCO3 [Sanguinarine Chloride (LOPAC), Sanguinarine Chloride] tested on HA-tagged human β2-adrenergic receptor (β2AR) (Homo sapiens)?
330

Input Cl.NCCCn1cc(C2=C(c3c[nH]c4ccccc34)C(=O)NC2=O)c2ccccc21 [Bisindolylmaleimide III, Hydrochloride]
171

Input Cn1cc(C2=C(c3cn(CCCN)c4ccccc34)C(=O)NC2=O)c2ccccc21 [RO-31-7549]
423

Input NCCCn1cc(C2=C(c3c[nH]c4ccccc34)C(=O)NC2=O)c2ccccc21 [Bisindolylmaleimide III]
232

Input O=C1NC(=O)C(c2cn(CCCN3CCNCC3)c3ccccc23)=C1c1c[nH]c2ccccc12 [Bisindolylmaleimide VII]
281

Input C[n+]1cc2c3c(ccc2c2ccc4cc5c(cc4c21)OCO5)OCO3 [Sanguinarine Chloride (S5890), Sanguinarine Chloride]
340

Input Cn1cc(C2=C(c3c4n(c5ccccc35)CCC(CN)C4)C(=O)NC2=O)c2ccccc21 (centres unmarked) [RO-31-8425]
359

Input CN1CCCC1CCn1cc(C2=C(c3c[nH]c4ccccc34)C(=O)NC2=O)c2ccccc21 (centres unmarked) [Bisindolylmaleimide II]
924

###

Target desc: HA-tagged human β2-adrenergic receptor (β2AR) (Homo sapiens, UniProt P07550)
Sequence (P07550 whole entry): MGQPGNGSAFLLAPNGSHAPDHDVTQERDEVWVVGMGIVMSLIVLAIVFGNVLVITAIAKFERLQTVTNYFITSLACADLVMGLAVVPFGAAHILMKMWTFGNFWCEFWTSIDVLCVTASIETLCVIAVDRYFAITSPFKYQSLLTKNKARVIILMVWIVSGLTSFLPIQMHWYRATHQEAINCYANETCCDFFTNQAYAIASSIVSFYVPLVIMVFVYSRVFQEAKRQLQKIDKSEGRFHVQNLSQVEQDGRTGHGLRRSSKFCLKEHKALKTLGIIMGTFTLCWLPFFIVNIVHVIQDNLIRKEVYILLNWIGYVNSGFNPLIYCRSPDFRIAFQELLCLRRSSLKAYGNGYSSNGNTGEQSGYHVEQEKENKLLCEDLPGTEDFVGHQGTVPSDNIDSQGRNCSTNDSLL
Assay method text: arrestin-GFP localization (Fgrains) assay in U20S-β2AR/ArrGFP cells, isoproterenol stimulated
Details: B2AR RT plate: room temperature, atmospheric CO2; 100 nM isoproterenol
Give measured slope of concentration-response curve for each item. Keep answers brief.
Note: the reply should be a number with no unit written.

Reported slope of concentration-response curve for C[n+]1cc2c3c(ccc2c2ccc4cc5c(cc4c21)OCO5)OCO3 [Sanguinarine Chloride (S5890), Sanguinarine Chloride] : what is it?
1.3

Input O=C1NC(=O)C(c2cn(CCCN3CCNCC3)c3ccccc23)=C1c1c[nH]c2ccccc12 [Bisindolylmaleimide VII]
2.2

Input CN1CCCC1CCn1cc(C2=C(c3c[nH]c4ccccc34)C(=O)NC2=O)c2ccccc21 (stereo not shown) [Bisindolylmaleimide II]
1.7

Input Cl.NCCCn1cc(C2=C(c3c[nH]c4ccccc34)C(=O)NC2=O)c2ccccc21 [Bisindolylmaleimide III, Hydrochloride]
3.5

###

Target desc: human vasopressin V2 receptor (V2R) (Homo sapiens)
Sequence (P30518 whole entry): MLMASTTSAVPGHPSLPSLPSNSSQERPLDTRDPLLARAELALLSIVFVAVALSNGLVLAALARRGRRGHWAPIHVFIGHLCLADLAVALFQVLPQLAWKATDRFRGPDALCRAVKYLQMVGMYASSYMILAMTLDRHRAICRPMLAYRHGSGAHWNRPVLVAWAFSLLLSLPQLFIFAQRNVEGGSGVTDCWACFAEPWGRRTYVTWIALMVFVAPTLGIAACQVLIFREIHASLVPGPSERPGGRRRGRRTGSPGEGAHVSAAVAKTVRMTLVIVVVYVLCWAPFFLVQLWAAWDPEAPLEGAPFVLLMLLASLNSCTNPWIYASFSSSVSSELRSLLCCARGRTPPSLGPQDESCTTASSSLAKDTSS
Assay method text: arrestin-GFP localization (Fgrains) assay in U20S-V2R/ArrGFP cells, arginine vasopressin stimulated
Format: cell-based
Details: V2R RT plate: room temperature, atmospheric CO2; 100 nM arginine vasopressin
Binary label based on EC50 with cut-off 40 µM: below gives true, not below gives false.

For CN1CCCC1CCn1cc(C2=C(c3c[nH]c4ccccc34)C(=O)NC2=O)c2ccccc21 (stereo not drawn) [Bisindolylmaleimide II] , is the recorded EC50 below the cut-off of 40 µM?
true

Input NCCCn1cc(C2=C(c3c[nH]c4ccccc34)C(=O)NC2=O)c2ccccc21 [Bisindolylmaleimide III]
true

Input Cl.NCCCn1cc(C2=C(c3c[nH]c4ccccc34)C(=O)NC2=O)c2ccccc21 [Bisindolylmaleimide III, Hydrochloride]
false

Input Cn1cc(C2=C(c3cn(CCCN)c4ccccc34)C(=O)NC2=O)c2ccccc21
true

Input Cn1cc(C2=C(c3c4n(c5ccccc35)CCC(CN)C4)C(=O)NC2=O)c2ccccc21 (stereo not drawn)
true

Input O=C1NC(=O)C(c2cn(CCCN3CCNCC3)c3ccccc23)=C1c1c[nH]c2ccccc12 [Bisindolylmaleimide VII]
true

###

Target desc: HA-tagged human β2-adrenergic receptor (β2AR) (Homo sapiens)
Assay method text: arrestin-GFP localization (Fgrains) assay in U20S-β2AR/ArrGFP cells, isoproterenol stimulated
Details: B2AR CO2 plate: 37° C., 5% CO2/95% O2; 100 nM isoproterenol; Hydrochloride
Measured quantity: EC50
Answer as a quantity: numeral, then unit.

Reported EC50 for Cl.NCCCn1cc(C2=C(c3c[nH]c4ccccc34)C(=O)NC2=O)c2ccccc21 [Bisindolylmaleimide III, Hydrochloride] : what is it?
233 µM

###

Target desc: human vasopressin V2 receptor (V2R) (Homo sapiens)
Assay method text: arrestin-GFP localization (Fgrains) assay in U20S-V2R/ArrGFP cells, arginine vasopressin stimulated
Format: cell-based
Details: V2R CO2 plate: 37° C., 5% CO2/95% O2; 100 nM arginine vasopressin
Give measured Min (fitted minimum Fgrains) for each item. Keep answers brief.
Note: the reply should be a number with no unit written.

Reported Min (fitted minimum Fgrains) for O=C1NC(=O)C(c2cn(CCCN3CCNCC3)c3ccccc23)=C1c1c[nH]c2ccccc12 [Bisindolylmaleimide VII] : what is it?
250

Input NCCCn1cc(C2=C(c3c[nH]c4ccccc34)C(=O)NC2=O)c2ccccc21 [Bisindolylmaleimide III]
291

Input C[n+]1cc2c3c(ccc2c2ccc4cc5c(cc4c21)OCO5)OCO3 [Sanguinarine Chloride (S5890), Sanguinarine Chloride]
27

Input Cn1cc(C2=C(c3cn(CCCN)c4ccccc34)C(=O)NC2=O)c2ccccc21 [RO-31-7549]
240

Input Cl.NCCCn1cc(C2=C(c3c[nH]c4ccccc34)C(=O)NC2=O)c2ccccc21 [Bisindolylmaleimide III, Hydrochloride]
129

###

Target desc: UniProtKB P30518
Assay method text: arrestin-GFP localization (Fgrains) assay in U20S-V2R/ArrGFP cells, arginine vasopressin stimulated
Type: cell-based
Details: V2R CO2 plate: 37° C., 5% CO2/95% O2; 100 nM arginine vasopressin
Give measured EC50 for each item. Keep answers brief.
Reply with just the number (in µM).

Reported EC50 for O=C1NC(=O)C(c2cn(CCCN3CCNCC3)c3ccccc23)=C1c1c[nH]c2ccccc12 [Bisindolylmaleimide VII] : what is it?
9.3

Input Cn1cc(C2=C(c3cn(CCCN)c4ccccc34)C(=O)NC2=O)c2ccccc21 [RO-31-7549]
2.7

Input NCCCn1cc(C2=C(c3c[nH]c4ccccc34)C(=O)NC2=O)c2ccccc21 [Bisindolylmaleimide III]
6

Input CN1CCCC1CCn1cc(C2=C(c3c[nH]c4ccccc34)C(=O)NC2=O)c2ccccc21 (stereo not drawn) [Bisindolylmaleimide II]
29.2

Input O=C1NC(=O)C(c2c[nH]c3ccccc23)=C1c1c[nH]c2ccccc12 [Bisindolylmaleimide IV]
69.2

Input Cn1cc(C2=C(c3c4n(c5ccccc35)CCC(CN)C4)C(=O)NC2=O)c2ccccc21 (stereo not drawn) [RO-31-8425]
13.9

###

Target desc: HA-tagged human β2-adrenergic receptor (β2AR) (Homo sapiens)
Assay method text: arrestin-GFP localization (Fgrains) assay in U20S-β2AR/ArrGFP cells, isoproterenol stimulated
Details: B2AR CO2 plate: 37° C., 5% CO2/95% O2; 100 nM isoproterenol
Give measured slope of concentration-response curve for each item. Keep answers brief.
Note: the reply should be a number with no unit written.

Reported slope of concentration-response curve for C[n+]1cc2c3c(ccc2c2ccc4cc5c(cc4c21)OCO5)OCO3 [Sanguinarine Chloride (LOPAC), Sanguinarine Chloride] : what is it?
1.6

Input CCC(=O)n1nc2c(c1C(C)(C)C)C(=O)c1ccccc1-2
3.2

Input CN1CCCC1CCn1cc(C2=C(c3c[nH]c4ccccc34)C(=O)NC2=O)c2ccccc21 (stereo not drawn) [Bisindolylmaleimide II]
1.7

Input NCCCn1cc(C2=C(c3c[nH]c4ccccc34)C(=O)NC2=O)c2ccccc21 [Bisindolylmaleimide III]
1.8

Input Cn1cc(C2=C(c3c4n(c5ccccc35)CCC(CN)C4)C(=O)NC2=O)c2ccccc21 (stereo not drawn)
2.1

Input Cn1cc(C2=C(c3cn(CCCN)c4ccccc34)C(=O)NC2=O)c2ccccc21
1.2

Input O=C1NC(=O)C(c2cn(CCCN3CCNCC3)c3ccccc23)=C1c1c[nH]c2ccccc12 [Bisindolylmaleimide VII]
2.3

Input Cl.NCCCn1cc(C2=C(c3c[nH]c4ccccc34)C(=O)NC2=O)c2ccccc21 [Bisindolylmaleimide III, Hydrochloride]
1.1

Input C[n+]1cc2c3c(ccc2c2ccc4cc5c(cc4c21)OCO5)OCO3 [Sanguinarine Chloride (S5890), Sanguinarine Chloride]
3.3

###

Give measured pEC50 for each item. Keep answers brief.
Target desc: HA-tagged human β2-adrenergic receptor (β2AR) (Homo sapiens, UniProt P07550)
Assay method text: arrestin-GFP localization (Fgrains) assay in U20S-β2AR/ArrGFP cells, isoproterenol stimulated
Details: B2AR RT plate: room temperature, atmospheric CO2; 100 nM isoproterenol
// returns pEC50 (minus log10 of molar concentration), number only

Reported pEC50 for Cn1cc(C2=C(c3cn(CCCN)c4ccccc34)C(=O)NC2=O)c2ccccc21 [RO-31-7549] : what is it?
4.51

Input Cn1cc(C2=C(c3c4n(c5ccccc35)CCC(CN)C4)C(=O)NC2=O)c2ccccc21 (centres unmarked) [RO-31-8425]
4.63

Input O=C1NC(=O)C(c2cn(CCCN3CCNCC3)c3ccccc23)=C1c1c[nH]c2ccccc12 [Bisindolylmaleimide VII]
4.60

Input CN1CCCC1CCn1cc(C2=C(c3c[nH]c4ccccc34)C(=O)NC2=O)c2ccccc21 (centres unmarked) [Bisindolylmaleimide II]
4.06

Input NCCCn1cc(C2=C(c3c[nH]c4ccccc34)C(=O)NC2=O)c2ccccc21 [Bisindolylmaleimide III]
4.65
